Consider the following compounds and their measured % MORTALITY AFTER 24 HRS readings.
Test system: Aedes aegypti mosquitoes
Experiment: Topical bioassay on adult female Aedes aegypti mosquitoes (knockdown 1 h, mortality 24 h; Colby calculation for combinations)
Type: in vivo
Settings: 3%
From the text: Components of a composition can have a synergistic or additive effect on insecticidal activity. Components have an additive effect when the effect of the combination is equal to the sum of the effects of each individual component. […] The effect (E) of a combination of two compounds may be calculated using the Colby formula (1) (S. R. Colby, “Calculating Synergistic and Antagonistic Responses of Herbicide Combinations”, Weeds 1967, 15, 20-22): […]
Write the numeric value and follow it with the unit.

// field: % MORTALITY AFTER 24 HRS; key: C=C(C)[C@H]1CC=C(C)C(=O)C1 [(S)-(+)-Carvone] ; value = 13%

Short answer for C=C(C)[C@@H]1CC=C(C)C(=O)C1 [(R)-(−)-Carvone] : % MORTALITY AFTER 24 HRS was 7%

The measured % MORTALITY AFTER 24 HRS associated with C=C(C)[C@H]1CC=C(C)C(=O)C1 [(S)-(−)-Carvone] reads 20%

Record C=C1CC/C=C(\C)CC[C@@H]2[C@@H]1CC2(C)C , field % MORTALITY AFTER 24 HRS: 0%

Read the next record carefully.
// % MORTALITY AFTER 24 HRS value for C=CC(C)=CCC=C(C)CCC=C(C)C : 3%
